Listing: pEC50 of selected compounds
- System: phagocytosis of anti-D-opsonized Rh(D+) red cells by monocytes
- test: monocyte monolayer assay (MMA), in vitro phagocytosis assay
- Type: cell-based, human
- condition-parameters: Homo sapiens, Monocyte; dose-inhibitory response
pEC50: −log10 of the molar value.

compound | target-system | pEC50
O=C(Nc1nccs1)c1cnn(-c2ccccc2)c1-n1cccc1 | phagocytosis of anti-D-opsonized Rh(D+) red cells by monocytes | < 5.00
COC(=O)CC1CCN(C(=O)c2cc(-c3cccs3)nn2-c2ccccc2)CC1 | phagocytosis of anti-D-opsonized Rh(D+) red cells by monocytes | 5.30

For the compound shown here, CCn1nccc1C1CCCN1S(=O)(=O)c1cc(C)c(C)cc1C (stereo not drawn) , give the reported pEC50. < 5.00

###

- System: phagocytosis of anti-D-opsonized Rh(D+) red cells by monocytes
- test: monocyte monolayer assay (MMA), in vitro phagocytosis assay
- Assay type: cell-based, human
- condition-parameters: Homo sapiens, Monocyte; 5 μM; anti-D-opsonized Rh(D+) red cells; read-out: Inhibition percentage
measure-name: inhibition at 5 µM

// solved cases for inhibition at 5 µM follow
molecule | inhibition at 5 µM
Cc1[nH]n(-c2ccccc2)c(=O)c1C1(C(F)(F)F)C(=O)Nc2c1c(=O)[nH]c(=O)n2Cc1ccccc1 (stereo not shown) [KB-167] | 53%
COc1ccc(CNC(=O)c2c(Cl)cnn2C)cc1OC [KB-178] | 53%
CCn1nccc1C1CCCN1S(=O)(=O)c1cc(C)c(C)cc1C (stereo not shown) [KB-198] | 75%
Cc1nn(C)c(C)c1-c1cc(C(=O)O)[nH]n1 [KB-189] | 52%
CCOC(=O)c1nn(-c2ccccc2)c(C#N)c1NC(=O)c1nn(CC)cc1Br [KB-151] | 80%

Please provide the recorded inhibition at 5 µM for O=C(Nc1nccs1)c1cnn(-c2ccccc2)c1-n1cccc1 [KB-210] , tested on phagocytosis of anti-D-opsonized Rh(D+) red cells by monocytes. 69%

Please provide the recorded inhibition at 5 µM for COC(=O)CC1CCN(C(=O)c2cc(-c3cccs3)nn2-c2ccccc2)CC1 [KB-208] , tested on phagocytosis of anti-D-opsonized Rh(D+) red cells by monocytes. 81%

Please provide the recorded inhibition at 5 µM for CSc1cccc(NC(=O)c2cnn(C)c2-n2cccc2)c1 [KB-212] , tested on phagocytosis of anti-D-opsonized Rh(D+) red cells by monocytes. 47%

Please provide the recorded inhibition at 5 µM for CCOC(=O)c1c(C)nn(-c2nc(C)cc(C)n2)c1N [KB-181] , tested on phagocytosis of anti-D-opsonized Rh(D+) red cells by monocytes. 45%

Please provide the recorded inhibition at 5 µM for Cc1coc(C)c1C1=NN(S(C)(=O)=O)C(c2cccs2)C1 (stereo not shown) [KB-175] , tested on phagocytosis of anti-D-opsonized Rh(D+) red cells by monocytes. 50%

Please provide the recorded inhibition at 5 µM for CCn1cc(S(=O)(=O)NCCc2ccc(OC)c(OC)c2)cn1 [KB-179] , tested on phagocytosis of anti-D-opsonized Rh(D+) red cells by monocytes. 53%

###

- Test system: phagocytosis of anti-D-opsonized Rh(D+) red cells by monocytes
- test: monocyte monolayer assay (MMA), in vitro phagocytosis assay
- Type: cell-based, human
- condition-parameters: Homo sapiens, Monocyte; 5 μM; anti-D-opsonized Rh(D+) red cells; read-out: Inhibition percentage
Listing: inhibition at 5 µM of selected molecules
Numbers only here, please. The scale is %.

// solved cases for inhibition at 5 µM follow
molecule | target-system | measure-name | uom | reading
CC(CCc1ccccc1)NC(=O)c1cnn(C)c1-n1cccc1 (centres unmarked) | phagocytosis of anti-D-opsonized Rh(D+) red cells by monocytes | inhibition at 5 µM | % | 47
CCOC(=O)c1cnn(-c2ncnc3c2cnn3-c2ccc(F)cc2)c1N | phagocytosis of anti-D-opsonized Rh(D+) red cells by monocytes | inhibition at 5 µM | % | 40
COc1ccc(-c2cc(C(=O)NCCc3c[nH]c4ccccc34)[nH]n2)cc1 | phagocytosis of anti-D-opsonized Rh(D+) red cells by monocytes | inhibition at 5 µM | % | 64
CC(C)c1cc(C(=O)Nc2nnc(C3CCCO3)s2)n(-c2ccccc2)n1 (centres unmarked) | phagocytosis of anti-D-opsonized Rh(D+) red cells by monocytes | inhibition at 5 µM | % | 50
Cc1nn(-c2ccc3nnc(C)n3n2)c2c1C(c1cccs1)CC(=O)N2 (centres unmarked) | phagocytosis of anti-D-opsonized Rh(D+) red cells by monocytes | inhibition at 5 µM | % | 56

For the molecule shown here, Cc1c(NC(=O)CSc2nc3c(c(=O)[nH]2)CCC3)c(=O)n(-c2ccccc2)n1C , give the reported inhibition at 5 µM. 55

For the molecule shown here, Nc1c(C(=O)O)cnn1-c1ccc(F)cc1F , give the reported inhibition at 5 µM. 50

For the molecule shown here, Cn1ccc(C(=O)Nc2ccc3c(c2)OCCO3)n1 , give the reported inhibition at 5 µM. 55
